target: HGFR (Homo sapiens, UniProt P08581); construct: purchased Upstate 14-526; assay: HGFR continuous-coupled spectrophotometric assay; format: biochemical; settings: at 50 nM; Table 5, library procedure 40; read-out: % inhibition (percent c-MET inhibition)
Sequence (P08581 974-1390 limits assumed): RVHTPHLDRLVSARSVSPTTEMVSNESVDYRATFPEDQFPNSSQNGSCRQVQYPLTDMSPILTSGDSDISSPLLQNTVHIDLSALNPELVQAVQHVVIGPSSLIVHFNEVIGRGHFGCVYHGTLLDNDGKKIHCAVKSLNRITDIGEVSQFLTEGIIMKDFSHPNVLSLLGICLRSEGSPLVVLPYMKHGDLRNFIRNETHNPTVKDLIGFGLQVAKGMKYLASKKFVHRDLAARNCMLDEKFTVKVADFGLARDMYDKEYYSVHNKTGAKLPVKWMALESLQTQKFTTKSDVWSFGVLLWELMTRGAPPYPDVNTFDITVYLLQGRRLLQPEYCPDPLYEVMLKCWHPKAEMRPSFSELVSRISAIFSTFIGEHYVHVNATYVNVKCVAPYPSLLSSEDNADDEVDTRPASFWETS
assay metric: inhibition at 0.05 µM (%)

compound	assay metric	reported value
Cc1cccc(CN(C)C(=O)c2ccc(-c3cnc(N)c(OC(C)c4c(Cl)ccc(F)c4Cl)c3)cc2)n1 [Example L-144]	inhibition at 0.05 µM	71
CC(Oc1cc(-c2ccc(C(=O)N3CCC(N(C)C)C3)cc2)cnc1N)c1c(Cl)ccc(F)c1Cl [Example L-123]	inhibition at 0.05 µM	80
CC(Oc1cc(-c2ccc(C(=O)NCCCO)cc2)cnc1N)c1c(Cl)ccc(F)c1Cl [Example L-5]	inhibition at 0.05 µM	68
C[C@H](Oc1cc(-c2ccc(C(=O)N[C@H]3CC[C@H](CO)CC3)cc2)cnc1N)c1c(Cl)ccc(F)c1Cl [Example L-174]	inhibition at 0.05 µM	68
CC(C)CCNC(=O)c1ccc(-c2cnc(N)c(OC(C)c3c(Cl)ccc(F)c3Cl)c2)cc1 [Example L-67]	inhibition at 0.05 µM	53
CC(Oc1cc(-c2ccc(C(=O)NCC(C)(C)CN(C)C)cc2)cnc1N)c1c(Cl)ccc(F)c1Cl [Example L-25]	inhibition at 0.05 µM	77
CC(Oc1cc(-c2ccc(C(=O)N(C)C)cc2)cnc1N)c1c(Cl)ccc(F)c1Cl [Example L-125]	inhibition at 0.05 µM	77
CC(Oc1cc(-c2ccc(C(=O)N3CCOCC3)cc2)cnc1N)c1c(Cl)ccc(F)c1Cl [Example L-103]	inhibition at 0.05 µM	91

====

molecular target: Met kinase domain (GST fusion protein) (Homo sapiens); construct: Purified GST fusion protein containing the Met kinase domain; test: Met transphosphorylation assay (ELISA, poly(glu-tyr) substrate); format: biochemical; conditions: plain numbers in column Met IC50 (μM) of Table 2; read-out: Met IC50
Cut-off 0.5 µM on IC50: below means condition met, at or above means condition not met.

compound	class assignment
CC(Oc1cc(OCCc2ccccc2)cnc1N)c1c(F)ccc(F)c1Cl (stereo not shown)	condition not met
CC(Oc1cc(C#CCN(C)C)cnc1N)c1c(Cl)ccc(F)c1Cl (stereo not shown)	condition met
CC(Oc1cc(-c2ccc(C(=O)N3CCN(C)CC3)cc2)cnc1N)c1c(Cl)cccc1Cl (stereo not shown)	condition met
CC(Oc1cc(O)cnc1N)c1c(F)ccc(F)c1Cl (stereo not shown)	condition not met
Nc1ncc(-c2cncnc2)cc1OCc1ccccc1Cl	condition not met
Nc1ncc(-c2ccncc2)cc1OCc1c(F)ccc(F)c1Cl	condition met
Nc1ncc(-c2ccncc2)cc1OCc1c(Cl)cccc1Cl	condition not met
CC(Oc1cc(C#CCNC(=O)N2C[C@@H](C)N[C@@H](C)C2)cnc1N)c1c(Cl)ccc(F)c1Cl (stereo partly shown)	condition met
CC(Oc1cc(-c2ccc(NC(=O)N3CC[C@H](N)C3)cc2)cnc1N)c1c(Cl)ccc(F)c1Cl (stereo partly shown)	condition met
CC(Oc1cc(OCc2ccccc2)cnc1N)c1c(F)ccc(F)c1Cl (stereo not shown)	condition not met

====

molecular target: Met kinase domain (GST fusion protein) (Homo sapiens, UniProt P08581); construct: Purified GST fusion protein containing the Met kinase domain; experiment: Met transphosphorylation assay (ELISA, poly(glu-tyr) substrate); format: biochemical; conditions: read-out: Met IC50;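 also: Cell-free ELISA with plate-bound poly(Glu:Tyr 4:1) phosphorylated by GST-fused Met kinase domain plus ATP and Mn2+, phosphotyrosine detected by anti-phosphotyrosine antibody with HRP and ABTS read-out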
Sequence (P08581 1078-1345 limits assumed): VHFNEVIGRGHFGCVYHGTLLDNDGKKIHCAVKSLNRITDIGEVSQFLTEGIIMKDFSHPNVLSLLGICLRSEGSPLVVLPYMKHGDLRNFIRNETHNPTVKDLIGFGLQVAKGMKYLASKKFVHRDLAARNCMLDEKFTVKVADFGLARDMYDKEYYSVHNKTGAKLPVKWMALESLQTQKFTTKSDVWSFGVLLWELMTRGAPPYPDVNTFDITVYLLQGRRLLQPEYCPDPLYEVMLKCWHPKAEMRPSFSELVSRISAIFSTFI
pIC50: −log10 of the molar value.
We begin with a simple list: items and their reported pIC50.

compound	censoring qualifier	pIC50
CS(=O)(=O)Nc1ccc(-c2cnc(N)c(OCc3ccccc3C(=O)O)c2)cc1	<	4.70
N#Cc1ccccc1COc1cc(-c2ccc(C(=O)NCCN3CCOCC3)cc2)cnc1N	=	5.07
Nc1ncc(Br)cc1OCc1ccccc1	<	4.70
CC(Oc1nc(-c2ccc(C(=O)NC3CCN(C)CC3)cc2)cnc1N)c1c(F)ccc(F)c1Cl (centres unmarked)	=	6.72
Nc1ncc(-c2ccccc2)cc1OCc1cc(C(F)(F)F)ccc1Cl	<	4.70
Nc1ncc(-c2ccccc2Oc2ccccc2)cc1OCc1c(Cl)cccc1Cl	<	4.70
Nc1ncc(-c2ccc(C(=O)NCCN3CCOCC3)cc2)nc1OCc1c(F)ccc(F)c1Cl	=	5.95
CN1CCC(c2c[nH]c3ccc(-c4cnc(N)c(OCc5c(Cl)cccc5Cl)c4)cc23)CC1	=	5.52
CN1CCN(C(=O)c2ccc(-c3cnc(N)c(OCc4ccccc4C#N)c3)cc2)CC1	=	5.49
Cc1csc(-c2cnc(N)c(OCc3c(Cl)cccc3Cl)c2)c1	=	5.46
CC(=O)N1CCN(CCNC(=O)c2cccc(-c3cnc(N)c(OC(C)c4c(F)ccc(F)c4Cl)n3)c2)CC1 (centres unmarked)	=	6.19
CC(Oc1nc(-c2cccc(C(=O)NCCN3CCCC3)c2)cnc1N)c1c(F)ccc(F)c1Cl (centres unmarked)	=	6.74
Nc1ncc(-c2ccc(C(=O)N3CCC[C@@H]3CN3CCCC3)cc2)cc1OCc1cc(F)ccc1C(F)(F)F	=	5.90
Nc1ncc(-c2ccc3c(c2)OCO3)cc1OCc1c(Cl)cccc1Cl	=	5.07
Nc1ncc(-c2ccc3[nH]c(C(=O)N4CC[C@H](N)C4)cc3c2)cc1OCc1c(Cl)cccc1Cl	=	6.85
Nc1ncc(-c2ccc(C(=O)NCCN3CCCC3)cc2)nc1OCc1c(F)ccc(F)c1Cl	=	6.89
CC(Oc1nc(-c2ccc(C(=O)N3C[C@@H](C)N[C@@H](C)C3)cc2)cnc1N)c1c(Cl)ccc(F)c1Cl (some centres unmarked)	=	7.02
Nc1ncc(-c2ccc3[nH]cc(CN4CCCC4)c3c2)cc1OCc1c(F)ccc(F)c1Cl	=	6.15
CC(Oc1nc(-c2cccc(C(=O)NCCN3CCOCC3)c2)cnc1N)c1c(F)ccc(F)c1Cl (centres unmarked)	=	6.51
Cc1ccc(F)c(COc2cc(-c3ccccc3)cnc2N)c1Cl	=	5.12
